// IC50 lookup, one value per entry
target: Transcription factor Jun (Homo sapiens, UniProt P05412); experiment: Inhibition of AP-1-mediated transcriptional activation in human Jurkat cells by luciferase reporter gene assay; format: cell-based
Sequence (P05412 whole entry): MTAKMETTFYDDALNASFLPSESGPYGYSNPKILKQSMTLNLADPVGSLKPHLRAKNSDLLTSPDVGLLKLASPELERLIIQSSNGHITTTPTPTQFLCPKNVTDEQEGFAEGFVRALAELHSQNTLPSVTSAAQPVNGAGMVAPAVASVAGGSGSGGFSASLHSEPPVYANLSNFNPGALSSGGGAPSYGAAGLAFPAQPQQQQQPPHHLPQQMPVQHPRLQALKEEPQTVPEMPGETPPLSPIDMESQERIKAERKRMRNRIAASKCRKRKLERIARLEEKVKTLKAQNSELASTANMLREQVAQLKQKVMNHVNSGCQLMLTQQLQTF
quantity-measured: IC50 (nM)

query_smiles=O=C(Nc1cc(C(F)(F)F)cc(C(F)(F)F)c1)c1cnc(Cl)nc1-c1ccccc1 readout_number=400
query_smiles=COc1ccc2nc(-c3cccs3)nc(NN3C(=O)C=C(C)C3=O)c2c1 readout_number=3
query_smiles=CC1=CC(=O)N(Nc2ncc(C(=O)c3ccccc3)c(C(F)(F)F)n2)C1=O readout_number=98
query_smiles=O=C1Nc2cc(C(F)(F)F)ccc2Nc2nc(Cl)ncc21 readout_number=10000

----------
target: Nuclear factor NF-kappa-B complex (Homo sapiens, UniProt Q00653+P19838+Q04206); assay: Inhibition of NF-kappaB-mediated transcriptional activation in human Jurkat cells by luciferase reporter gene assay
Sequence (P19838 1-433 limits assumed): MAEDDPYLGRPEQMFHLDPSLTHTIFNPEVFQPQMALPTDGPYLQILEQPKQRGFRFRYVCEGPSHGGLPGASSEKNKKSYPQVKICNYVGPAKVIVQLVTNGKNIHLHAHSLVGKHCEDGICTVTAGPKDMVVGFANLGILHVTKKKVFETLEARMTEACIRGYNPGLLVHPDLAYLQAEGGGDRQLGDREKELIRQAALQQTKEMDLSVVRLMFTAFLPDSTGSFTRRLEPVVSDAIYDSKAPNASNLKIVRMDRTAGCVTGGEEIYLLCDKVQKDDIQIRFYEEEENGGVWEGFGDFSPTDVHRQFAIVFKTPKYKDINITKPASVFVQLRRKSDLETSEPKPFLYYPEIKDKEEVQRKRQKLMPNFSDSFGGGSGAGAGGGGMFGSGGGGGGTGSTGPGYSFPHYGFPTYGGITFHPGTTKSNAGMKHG
Sequence (Q00653 1-454 limits assumed): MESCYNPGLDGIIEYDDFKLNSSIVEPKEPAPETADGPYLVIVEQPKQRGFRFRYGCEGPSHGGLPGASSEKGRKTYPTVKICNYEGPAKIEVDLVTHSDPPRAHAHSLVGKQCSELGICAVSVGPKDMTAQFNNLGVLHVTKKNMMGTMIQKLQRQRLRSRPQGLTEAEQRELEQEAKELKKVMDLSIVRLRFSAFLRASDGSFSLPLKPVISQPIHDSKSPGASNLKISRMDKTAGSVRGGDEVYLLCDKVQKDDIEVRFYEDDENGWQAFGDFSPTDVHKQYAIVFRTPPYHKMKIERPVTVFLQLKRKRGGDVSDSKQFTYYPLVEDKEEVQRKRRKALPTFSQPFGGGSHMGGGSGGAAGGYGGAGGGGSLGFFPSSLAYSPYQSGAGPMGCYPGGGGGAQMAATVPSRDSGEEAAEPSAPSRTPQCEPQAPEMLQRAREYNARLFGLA
Sequence (Q04206 whole entry): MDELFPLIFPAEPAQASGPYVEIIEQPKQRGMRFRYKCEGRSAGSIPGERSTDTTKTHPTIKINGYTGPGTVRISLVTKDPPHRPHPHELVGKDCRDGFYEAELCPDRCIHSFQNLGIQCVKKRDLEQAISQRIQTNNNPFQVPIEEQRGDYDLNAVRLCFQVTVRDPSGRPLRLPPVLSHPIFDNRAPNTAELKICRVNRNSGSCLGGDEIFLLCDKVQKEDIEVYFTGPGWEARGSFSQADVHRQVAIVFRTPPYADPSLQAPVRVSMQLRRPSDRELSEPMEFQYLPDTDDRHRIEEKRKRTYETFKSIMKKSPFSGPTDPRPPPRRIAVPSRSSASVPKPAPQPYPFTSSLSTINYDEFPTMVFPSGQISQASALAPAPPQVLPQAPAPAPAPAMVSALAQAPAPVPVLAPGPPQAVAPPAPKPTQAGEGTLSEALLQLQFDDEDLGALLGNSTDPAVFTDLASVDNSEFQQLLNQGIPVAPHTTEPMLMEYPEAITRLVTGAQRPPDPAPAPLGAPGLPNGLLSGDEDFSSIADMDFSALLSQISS
pIC50: −log10 of the molar value.
// map pIC50 to label using A (below 6), B (6 to below 7), C (7 or more)

query_smiles=O=C(Nc1cc(C(F)(F)F)cc(C(F)(F)F)c1)c1cnc(Cl)nc1-c1ccccc1 assayed_system="Nuclear factor NF-kappa-B complex (Homo sapiens, UniProt Q00653+P19838+Q04206)" classification=B
query_smiles=O=C(Nc1cc(C(F)(F)F)cc(C(F)(F)F)c1)c1nnc(Cl)cc1C(F)(F)F assayed_system="Nuclear factor NF-kappa-B complex (Homo sapiens, UniProt Q00653+P19838+Q04206)" classification=A
query_smiles=O=C(Nc1cc(C(F)(F)F)cc(C(F)(F)F)c1)c1cnc(F)nc1C(F)(F)F assayed_system="Nuclear factor NF-kappa-B complex (Homo sapiens, UniProt Q00653+P19838+Q04206)" classification=B
query_smiles=O=C(Nc1cc(C(F)(F)F)cc(C(F)(F)F)c1)c1ccc(Cl)nn1 assayed_system="Nuclear factor NF-kappa-B complex (Homo sapiens, UniProt Q00653+P19838+Q04206)" classification=A
query_smiles=O=C(Nc1cc(C(F)(F)F)cc(C(F)(F)F)c1)c1cnc(Cl)nc1Cl assayed_system="Nuclear factor NF-kappa-B complex (Homo sapiens, UniProt Q00653+P19838+Q04206)" classification=B
query_smiles=O=C(Nc1cc(C(F)(F)F)cc(C(F)(F)F)c1)c1cnc(Cl)nc1C(F)(F)F assayed_system="Nuclear factor NF-kappa-B complex (Homo sapiens, UniProt Q00653+P19838+Q04206)" classification=C
query_smiles=CCOC(=O)c1cnc(-c2cccs2)nc1NN1C(=O)C=C(C)C1=O assayed_system="Nuclear factor NF-kappa-B complex (Homo sapiens, UniProt Q00653+P19838+Q04206)" classification=C
query_smiles=O=C(Nc1cc(C(F)(F)F)cc(C(F)(F)F)c1)c1cnc(Cl)cn1 assayed_system="Nuclear factor NF-kappa-B complex (Homo sapiens, UniProt Q00653+P19838+Q04206)" classification=A
query_smiles=Cc1nc(Cl)ncc1C(=O)Nc1cc(C(F)(F)F)cc(C(F)(F)F)c1 assayed_system="Nuclear factor NF-kappa-B complex (Homo sapiens, UniProt Q00653+P19838+Q04206)" classification=C

----------
molecular target: UniProt P10826; assay: Activity at RARbeta (unknown origin)
Sequence (P10826 whole entry): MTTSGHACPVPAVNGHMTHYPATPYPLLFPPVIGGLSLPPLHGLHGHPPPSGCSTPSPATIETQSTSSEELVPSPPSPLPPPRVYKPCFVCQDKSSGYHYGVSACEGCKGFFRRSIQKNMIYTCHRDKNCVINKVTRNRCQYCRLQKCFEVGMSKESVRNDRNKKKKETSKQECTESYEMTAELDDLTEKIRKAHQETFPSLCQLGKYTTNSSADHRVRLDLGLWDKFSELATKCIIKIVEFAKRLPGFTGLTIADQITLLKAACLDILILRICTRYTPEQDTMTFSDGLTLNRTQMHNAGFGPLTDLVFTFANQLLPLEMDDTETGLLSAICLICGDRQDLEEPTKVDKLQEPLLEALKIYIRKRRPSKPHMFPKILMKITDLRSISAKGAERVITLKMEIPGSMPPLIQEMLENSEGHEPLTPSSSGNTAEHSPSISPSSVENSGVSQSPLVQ
pEC50: −log10 of the molar value.
quantity-measured: pEC50

query_smiles=CC1=C(/C=C/C(=C/C=C/C(C)=C/C(=O)O)c2ccc(C)cc2)C(C)(C)CCC1 quantity_measured=pEC50 result="< 6.00"
